tested on: Fer (mouse); experiment: phosphorylation enrichment, bacterial display (enrichment ratio); higher = better substrate or ligand; peptides without Tyr show the background;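 note: 11-residue human phosphosite peptides and single-mutation variants displayed on the E. coli surface, counted by deep sequencing, each peptide's frequency after selection divided by its frequency in the unselected input library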;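 note: frequency after pTyr selection over input frequency; kinase dosed for 20-30% of maximal phosphorylation in three min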
Assign phosphorylation enrichment to each entry below.

QEKKGYFEDRC [GLUL_Y336_R341C] :: 0.519
SKNFTYIWWLN [PSG4_Y271_YF] :: 0.508
PAIFTYDEFKK [COL8A2_Y648_T645I_YF] :: 0.304
SEKVVYRRFTE [NCF1_Y41] :: 0.387
KRIETYFSKNY [PLP1_Y50_L46R] :: 0.377

Kindly give each listed record's phosphorylation enrichment.
1. IMFTSYFLTIL [TAS2R16_Y239_V235M]
2. ISDEAYVMAGV [ERBB2_Y772_L768S]

Response:
0.579
0.564

###

system: c-Src; assay: phosphorylation enrichment, bacterial display (enrichment ratio); higher = better substrate or ligand; peptides without Tyr show the background
Classification scheme (phosphorylation enrichment): c1 (below 0.5), c2 (0.5 to below 0.7), c3 (0.7 or more)

Some solved entries appear below for comparison.
QTLTDYDTRFY [CSNK2A3_Y131_I133T] :: c1
TSEASYFKSLN [NGEF_Y288_YF] :: c2
NMSRIYSTTKV [ACE_Y151_A154T] :: c1
PVPKTYDMLNA [PKP2_Y108_K112N] :: c3

Prompt: Where would TLSGIYQFSIA [FOXL2_Y81_I84S_YF] land among the classes by reported phosphorylation enrichment?
Response: c3

Prompt: Given PEFINYHQHNS [BTK_Y361_L358F] , name the class its phosphorylation enrichment places it in.
Response: c3

###

molecular target: FGFR1 (UniProt P11362); assay: phosphorylation enrichment, bacterial display (enrichment ratio); higher = better substrate or ligand; peptides without Tyr show the background
Sequence (P11362 whole entry, looked up): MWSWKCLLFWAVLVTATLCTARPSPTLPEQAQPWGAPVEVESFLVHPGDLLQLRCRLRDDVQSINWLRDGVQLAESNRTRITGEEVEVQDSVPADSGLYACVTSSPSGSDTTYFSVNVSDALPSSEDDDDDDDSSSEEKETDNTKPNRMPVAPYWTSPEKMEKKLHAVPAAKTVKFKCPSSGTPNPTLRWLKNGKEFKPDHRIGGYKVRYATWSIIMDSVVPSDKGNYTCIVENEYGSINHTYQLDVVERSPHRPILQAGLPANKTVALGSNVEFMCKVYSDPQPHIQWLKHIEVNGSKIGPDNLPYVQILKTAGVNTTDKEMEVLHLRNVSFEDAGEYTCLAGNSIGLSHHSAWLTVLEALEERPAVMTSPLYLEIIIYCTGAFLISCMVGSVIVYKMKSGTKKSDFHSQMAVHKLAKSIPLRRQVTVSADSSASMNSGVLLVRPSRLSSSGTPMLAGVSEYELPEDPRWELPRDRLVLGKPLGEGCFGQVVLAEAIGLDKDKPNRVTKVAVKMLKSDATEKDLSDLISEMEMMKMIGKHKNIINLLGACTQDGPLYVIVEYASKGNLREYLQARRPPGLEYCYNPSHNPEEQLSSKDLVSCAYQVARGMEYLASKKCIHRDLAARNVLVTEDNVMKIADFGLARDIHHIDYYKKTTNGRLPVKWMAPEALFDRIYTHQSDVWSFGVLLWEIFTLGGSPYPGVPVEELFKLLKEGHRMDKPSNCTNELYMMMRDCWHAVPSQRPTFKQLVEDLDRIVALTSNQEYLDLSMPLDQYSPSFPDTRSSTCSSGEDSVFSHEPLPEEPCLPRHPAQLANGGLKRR
Labels assigned by phosphorylation enrichment range: range A = under 0.5, range B = from 0.5 up to 0.6, range C = 0.6 and over

PSAELYSNALP [PDGFRB_Y716] :: range C
PEFINYHQHNS [BTK_Y361_L358F] :: range C

Prompt: Band of TDLAYYLVCKG [ASL_Y376_R379C] ?
Response: range C

###

target: Fyn (UniProt P06241); assay: phosphorylation enrichment, bacterial display (enrichment ratio); higher = better substrate or ligand; peptides without Tyr show the background
Sequence (P06241 whole entry, looked up): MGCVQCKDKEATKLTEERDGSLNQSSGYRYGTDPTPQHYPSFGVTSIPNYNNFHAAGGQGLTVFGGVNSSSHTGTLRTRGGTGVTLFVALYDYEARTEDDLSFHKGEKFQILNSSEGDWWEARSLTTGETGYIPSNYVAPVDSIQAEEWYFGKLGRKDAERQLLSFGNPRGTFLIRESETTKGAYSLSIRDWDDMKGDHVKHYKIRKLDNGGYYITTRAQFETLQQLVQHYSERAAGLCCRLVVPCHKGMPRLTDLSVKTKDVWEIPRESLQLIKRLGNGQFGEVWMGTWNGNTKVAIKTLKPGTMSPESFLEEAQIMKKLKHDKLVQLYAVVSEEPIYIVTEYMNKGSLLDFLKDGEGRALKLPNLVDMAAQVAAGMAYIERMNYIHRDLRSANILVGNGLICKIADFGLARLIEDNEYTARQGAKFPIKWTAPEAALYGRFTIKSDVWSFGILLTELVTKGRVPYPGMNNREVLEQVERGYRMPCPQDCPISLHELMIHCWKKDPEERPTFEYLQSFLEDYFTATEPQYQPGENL
Hi, to clarify the labels: 1.0 covers phosphorylation enrichment from 1 upward, 0.0 covers anything below 1.

Below, 6 sequences whose answers are already recorded.
RLGVTYEQALA [MAP2_Y996_G991R] :: 0.0
AHDGEYGAEAL [HBA1_Y25_A22D] :: 0.0
RCKSHYAAFSV [C1QTNF1_Y145] :: 1.0
LENSTYQFICV [CRB1_Y760_R764C_YF] :: 1.0
DEGVNHFMSKG [FBXO8_Y156_Y156H] :: 0.0
ALADKYHGGGG [HBB_Y146_H144D] :: 0.0

Okay, now this sequence:
Prompt: Could you please find out whether YADGVYQALEE [DUOX2_Y70] has phosphorylation enrichment that meets 1 or exceeds it?
Response: 1.0

###

system: c-Src; assay: phosphorylation enrichment, bacterial display (enrichment ratio); higher = better substrate or ligand; peptides without Tyr show the background
REPORTED_METRIC: phosphorylation enrichment
Answers are plain numbers.

EDKSIYRRGAC [PRKCI_Y125_R130C] :: 0.315

Field: phosphorylation enrichment. Fill in for each record below.
1. EILLSDLRTGF [TGM1_Y365_Y365D_YF]
2. NKEAICSGFIR [SMCHD1_Y283_Y283C_YF]
3. RLLRGHDQSAF [HLA-C_Y137_Y137H_YF]
4. VFAANYFKLLG [ROR2_Y645_D644N_YF]
5. VKPRRYRPGTV [H3-5_Y41_H39R]
6. SSVKPYRVYCD [FGB_Y266]

Response:
1. 0.418
2. 0.451
3. 0.573
4. 0.56
5. 0.608
6. 0.519
